# run-description: folding stability dG unfold from trypsin proteolysis; higher = more stable
Could you please report measured folding stability dG unfold for the items listed next?
Form field: result (number plus unit)

Quick one: folding stability dG unfold for SAGGSAGGSAGGSKPEVIKLKVKKIKVKKKKYDKNGKLVEEEEKEITVETTVFVPKEDLSAGGSAGGSAGGS [r4_425_TrROS_Hall] ?
-0.381 kcal/mol

Fill blank: measured folding stability dG unfold of the sequence SAGGSAGGSAGGKKIEIPGFEITKVEPLENDSVIAEGKFKNGKKYRILFLPNKVYINDESAGGSAGGSAGGS [r10_312_TrMRF] is ____.
0.335 kcal/mol

Field request: folding stability dG unfold | item: SAGGVITIRIPGIDNRNPETMRSKAVEIADRLRDHGVTVTDVEWDPDQGSMTITVMLPGQSLEDILKSAGGS [r8_344_TrROS]
1.89 kcal/mol

Look at this sequence and give its reported folding stability dG unfold. SAGGSAGGSAFQIEDLKIEKVEFNPDGMVHNELEITLPGGKELEVSIMIDPKKPGKLMIMIVSAGGSAGGSA [r18_97_TrROS]
1.98 kcal/mol

Suppose we examine the sequence SAGGSAGGYWMISVKIYDPEDGKPIAQMTFMFDSPEEAERIVEEIADALPPGYRVEVDIHPIPNSAGGSAGG [r6_690_TrROS] ; what folding stability dG unfold value has been reported?
3.82 kcal/mol

# lookup: folding stability dG unfold of SAGGITIVWQPGYFRIEFPGNGNTVPIPIPPDDPGRTLEEFADEFIDEMSERFGIPPPEDIKIEYYDSAGGS [r8_402_TrROS]
1.31 kcal/mol

Field request: folding stability dG unfold | item: SMKTLIVEGMTPEEIRALAEEAAKKGEEVEIEIVVKDNEEIKEALEEAGVEVEEVEDPETKEKVLKVTVKSA [r9_759_TrROS_Hall]
0.254 kcal/mol

Tell me the measured folding stability dG unfold of SAGGSAGGSAGGEKTIRITVKNENGETLEIEVSEEDAEELLKALEDAGISLEEITRIEPVSAGGSAGGSAGG [r7_745_TrROS_Hall] , please.
1.92 kcal/mol

Could you share which folding stability dG unfold value was measured for SAGGMSLEHVTEIVETVTHPDGTKTVTIRLSDPAIWAGEDPATAAALAEAVQAEHADEGVAVTVVGAPSAGG [r13_243_JUSTAS] ?
-0.642 kcal/mol

Recorded folding stability dG unfold for SAGGSAGGSGMEKKTITITIPVPPDRDVTEEEIKETLKPLGYEEVDIEEIKPAGNSYTVTAVISAGGSAGGS [r20_79_JUSTAS] , please?
0.212 kcal/mol

Reported folding stability dG unfold for SAGGSAGGPKKIKITNIEYPNGYWRVKISLPNGKEVEYPMDSPDDALDWAEDDGIKEVEIEKYNSAGGSAGG [r6_601_TrROS] : what is it?
-0.429 kcal/mol

// returns reported folding stability dG unfold for input SAGGSAGGSAGGMSFPVSSVEYRKDPNSDTPLVFITLPDGTVIIERLDTGTSSVVPVSQLSAGGSAGGSAGG [r11_922_JUSTAS]
1.12 kcal/mol

I would be grateful if you could share the reported folding stability dG unfold for SAGEVKIEVEGLPDKTVIRITIPYTAPGVGPSALLAVLKELGLPPETKLLKVEFYEEPKTVEALVVQGSAGG [r19_186_TrMRF] .
1.13 kcal/mol

For the sequence SAGGSAGGSKMLLVKVYIEETKEEIVIEVPEGMTLEEIAERLRELGYKIKKIEVYELPPPPEESAGGSAGGS [r12_955_TrROS_Hall] , what folding stability dG unfold is on record?
3.82 kcal/mol

Report folding stability dG unfold for SAGGSAGGSAGGGMGSSVTITTEEDPTDETETTKKTKVTLNLPNPEEAEALKKKIEEKESAGGSAGGSAGGS [r10_1180_JUSTAS] please.
-0.47 kcal/mol

For the sequence shown here, SAGGSAKVIRVKSLEEALKLAEEAKKAGLEVEIKLLPDGSVLITVKPKPKPKVKKVEKKVKLPEGKSAGGSA [r15_761_TrROS_Hall] , give the reported folding stability dG unfold.
0.507 kcal/mol

// returns reported folding stability dG unfold for input SAGGSAGGSMKTYTLPNGLRVQLVRVDKKTKTITLKVFDKNGELVEEIEIKVDEPVELLVVYPSAGGSAGGS [r12_960_TrROS_Hall]
2.09 kcal/mol

Return reported folding stability dG unfold; argument: SAGMLTYRFTVPAEEAEEAAEELAETLRRELGLPEEVKVEVKVVEYDPETGLVTVEAVVYRPLPEGVEPSAG [r5_537_TrMRF]
4.21 kcal/mol

Consider the sequence shown here: SAGGSAGGSDVEVTVTLEYDEETGVLYVTAEVRDKETGRTVRVVVKFDLETNEWEVVAVEVLPSAGGSAGGS [r20_163_TrROS_Hall] What is its recorded folding stability dG unfold?
2.92 kcal/mol

Quick one: folding stability dG unfold of SAGMTVEELKAQPKNATVTSVSRDPSTGLYTVTIERPDSNGKWVTHTLTLTGPEAVAAAVAAGLPSLAASAG [r5_905_JUSTAS] ?
1.31 kcal/mol

Dear colleague, I am looking for the recorded folding stability dG unfold of the following sequence: SAGGSAGGSAGGEKEEEEVTVTIYNKETDKVIEITVPKGVTEEEARKKAKELAEELEKKKSAGGSAGGSAGG [r7_957_TrROS_Hall]
0.29 kcal/mol

Any idea what its folding stability dG unfold is? The sequence is SAGGSAGGSAGEIEVTVTFTGDDGYVVEVKYTFEVPEPNNPIIKKVEVKVKKLKPNEPASSAGGSAGGSAGG [r11_517_TrMRF]
1.12 kcal/mol

What value of folding stability dG unfold has been recorded for this entry: SAGGSAGGSAGGKKITIVMSAEEAEALAKALEDAGIDIDNLKIEVVKVEFPPALPAEDKSAGGSAGGSAGGS [r10_602_TrROS_Hall]
1.2 kcal/mol

Bench note: what folding stability dG unfold did SAGDPDRPVVVVIHYVDPETGEPRVEVFPADRIERIEVSPDGVLRIHLPAYGLEIDFPLDVVDHVDIASAGG [r19_416_TrMRF] show?
1.99 kcal/mol

Need folding stability dG unfold, item SAGGSPYRIKFEFPNGPKFEFPVKITEIQPPNGNLYANITAQDDGKPHELMFPAPNIRPVEIEPPPSAGGSA [r2_319_TrROS]
-0.796 kcal/mol

Look at this sequence and give its reported folding stability dG unfold. SDYYIINIKIEVYYDGKPVREIPIFILVPPEQALMIAETIAEMLPGYKVKIKINVYRIPEDDPELREAFGSA [r9_782_TrROS]
2.31 kcal/mol

Quick check: folding stability dG unfold of SAGGSAGGSKGKKITIILPPGMPPDAIKNWLAPLGINITIEPIPVVKPKRDPDDGEETYEPYGSAGGSAGGS [r12_80_TrROS] ?
0.73 kcal/mol
